- test_target: T1, GB1-AF9 (497-568) (human) (UniProt P42568)
- T1 sequence: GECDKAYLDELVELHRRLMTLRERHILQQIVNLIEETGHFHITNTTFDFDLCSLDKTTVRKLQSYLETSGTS
- protocol_text: FP saturation; 10 nM Flu-DOT1L titrated with GB1-AF9
Where no end group is shown, it is not given here.
reported_metric: pKd
Scale for pKd: -log10 of concentration given in mol/L; no unit attached.

Input: Given LPISIPLSTV-NH2 (not fully specified (N-terminus)) [N-Flu-DOT1L, fluorescein-labeled DOT1L 10-mer peptide (N-terminal label)] , respond with its pKd.
Output: 7.19
